# Test system: Liver microsomes
# Measurement protocol: Metabolic stability in rat liver microsomes after 30 mins
# Type: ADME, Microsome
# Cond: 0.5 h

Mol smiles: N#Cc1ccc(Cn2nnc3c(-c4ccco4)nc(N)nc32)cc1
Experimental target: Liver microsomes
Stability: Stable

Mol smiles: CC(C)N(C)C(=O)c1cccc(Cn2nnc3c(-c4ccco4)nc(N)nc32)c1
Experimental target: Liver microsomes
Stability: Stable

Mol smiles: Cc1ccc(-c2nc(N)nc3c2nnn3Cc2ccccc2F)o1
Experimental target: Liver microsomes
Stability: Stable

Mol smiles: Cc1ccccc1Cn1nnc2c(-c3ccco3)nc(N)nc21
Experimental target: Liver microsomes
Stability: Stable

Mol smiles: Nc1nc(-c2ccco2)c2nnn(Cc3ccc(F)cc3F)c2n1
Experimental target: Liver microsomes
Stability: Stable

Mol smiles: NC(=O)c1cccc(Cn2nnc3c(-c4ccco4)nc(N)nc32)c1
Experimental target: Liver microsomes
Stability: Stable

Mol smiles: Nc1nc(-c2ccco2)c2nnn(Cc3ccccc3)c2n1
Experimental target: Liver microsomes
Stability: Stable

Mol smiles: Nc1nc(-c2cnn[nH]2)c2nnn(Cc3ccccc3F)c2n1
Experimental target: Liver microsomes
Stability: Stable

Mol smiles: Nc1nc(-c2ccco2)c2nn[nH]c2n1
Experimental target: Liver microsomes
Stability: Stable

Mol smiles: Nc1nc(-c2cc[nH]n2)c2nnn(Cc3ccccc3F)c2n1
Experimental target: Liver microsomes
Stability: Stable

Mol smiles: Nc1nc(-c2ccco2)c2nnn(Cc3cccc([N+](=O)[O-])c3)c2n1
Experimental target: Liver microsomes
Stability: Stable

Mol smiles: Nc1nc(-c2ccco2)c2nnn(Cc3ccc([N+](=O)[O-])cc3)c2n1
Experimental target: Liver microsomes
Stability: Stable

Mol smiles: COC(=O)c1cccc(Cn2nnc3c(-c4ccco4)nc(N)nc32)c1
Experimental target: Liver microsomes
Stability: Stable

Mol smiles: Nc1nc(-c2ccco2)c2nnn(Cc3ccccc3F)c2n1
Experimental target: Liver microsomes
Stability: Stable

Mol smiles: CC(C)NC(=O)c1cccc(Cn2nnc3c(-c4ccco4)nc(N)nc32)c1
Experimental target: Liver microsomes
Stability: Stable

* * *

# Experimental target: Adenosine receptor A2a (Homo sapiens)
# Sequence (P29274 whole entry): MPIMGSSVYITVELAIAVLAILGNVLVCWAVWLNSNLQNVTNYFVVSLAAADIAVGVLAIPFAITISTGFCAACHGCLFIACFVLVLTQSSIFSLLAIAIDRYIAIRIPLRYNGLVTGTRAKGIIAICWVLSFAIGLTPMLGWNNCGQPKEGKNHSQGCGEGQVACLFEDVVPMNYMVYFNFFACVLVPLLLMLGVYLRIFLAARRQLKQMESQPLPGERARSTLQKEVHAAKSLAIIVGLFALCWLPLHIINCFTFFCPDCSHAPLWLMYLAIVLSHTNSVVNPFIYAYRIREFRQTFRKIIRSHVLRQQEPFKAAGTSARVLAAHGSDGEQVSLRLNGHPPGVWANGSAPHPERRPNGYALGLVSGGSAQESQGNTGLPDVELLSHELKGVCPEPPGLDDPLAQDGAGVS
# Measurement protocol: Displacement of radioligand from human recombinant adenosine A2A receptor at 21 degC after 90 mins by cell-based microplate scintillation counting
hey, just use Satisfied if measured Ki is less than 8 nM, otherwise Not satisfied

Mol smiles: Cc1cccc(Cn2nnc3c(-c4ccco4)nc(N)nc32)c1
Cat: Satisfied

Mol smiles: Nc1nc(-c2ccco2)c2nnn(Cc3cccc(C(=O)O)c3)c2n1
Cat: Not satisfied

Mol smiles: Nc1nc(-c2ccco2)c2nnn(Cc3c(F)cccc3F)c2n1
Cat: Satisfied

Mol smiles: Nc1nc(-c2ccco2)c2nnn(Cc3ccc([N+](=O)[O-])cc3)c2n1
Cat: Not satisfied

Mol smiles: Nc1nc(-c2cnn[nH]2)c2nnn(Cc3ccccc3F)c2n1
Cat: Not satisfied

Mol smiles: Nc1nc(-c2ccco2)c2nnn(Cc3ccccc3F)c2n1
Cat: Satisfied

Mol smiles: Nc1nc(-c2ccco2)c2nnn(Cc3ccc(N)c(F)c3)c2n1
Cat: Satisfied

Mol smiles: Nc1nc(-c2ccco2)c2nnn(Cc3cccnc3)c2n1
Cat: Not satisfied

Mol smiles: Cc1csc(-c2nc(N)nc3c2nnn3Cc2ccccc2F)n1
Cat: Satisfied

* * *

# Experimental target: Adenosine receptor A1 (Homo sapiens)
# Sequence (P30542 whole entry): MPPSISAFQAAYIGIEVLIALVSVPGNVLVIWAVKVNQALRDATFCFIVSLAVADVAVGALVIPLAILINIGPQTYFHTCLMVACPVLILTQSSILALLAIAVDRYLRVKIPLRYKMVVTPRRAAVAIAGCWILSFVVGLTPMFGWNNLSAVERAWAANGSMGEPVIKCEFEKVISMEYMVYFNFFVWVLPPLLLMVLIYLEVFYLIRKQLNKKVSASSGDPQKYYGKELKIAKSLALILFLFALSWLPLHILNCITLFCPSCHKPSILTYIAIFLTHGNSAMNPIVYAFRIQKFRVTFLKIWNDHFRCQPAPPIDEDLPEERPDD
# Measurement protocol: Displacement of radioligand from human recombinant adenosine A1 receptor at 21 degC after 90 mins by cell-based microplate scintillation counting
pKi: −log10 of the molar value.
Experimental endpoint: pKi

Mol smiles: Nc1nc(-c2ccco2)c2nnn(Cc3cc(F)ccc3F)c2n1
Reported measurement: 7.01
//
Mol smiles: Nc1nc(-c2ccco2)c2nnn(Cc3ccccc3F)c2n1
Reported measurement: 6.98
//
Mol smiles: Nc1nc(-c2ccco2)c2nnn(Cc3ccccc3N)c2n1
Reported measurement: 7.20
//
Mol smiles: N#Cc1cccc(Cn2nnc3c(-c4ccco4)nc(N)nc32)c1
Reported measurement: 6.88

* * *

Listing of entries alongside the reported Ki.
# Experimental target: Adenosine receptor A3 (Homo sapiens, UniProt P0DMS8)
# Sequence (P0DMS8 whole entry): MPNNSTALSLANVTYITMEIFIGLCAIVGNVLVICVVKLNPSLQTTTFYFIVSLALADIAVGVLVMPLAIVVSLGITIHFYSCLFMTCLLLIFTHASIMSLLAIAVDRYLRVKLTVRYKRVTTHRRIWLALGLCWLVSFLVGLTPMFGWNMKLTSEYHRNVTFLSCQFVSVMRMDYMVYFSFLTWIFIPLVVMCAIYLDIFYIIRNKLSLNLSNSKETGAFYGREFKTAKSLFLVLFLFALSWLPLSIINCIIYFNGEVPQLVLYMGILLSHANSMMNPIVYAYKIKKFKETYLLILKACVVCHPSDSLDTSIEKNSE
# Measurement protocol: Displacement of radioligand from human recombinant adenosine A3 receptor at 21 degC after 60 mins by cell-based microplate scintillation counting

Mol smiles: Nc1nc(-c2ccco2)c2nnn(Cc3ccccn3)c2n1
Unit name: nM
Ki: 1080
--
Mol smiles: Cc1csc(-c2nc(N)nc3c2nnn3Cc2ccccc2F)n1
Unit name: nM
Ki: 1260
--
Mol smiles: Nc1nc(-c2ccco2)c2nnn(Cc3cccnc3)c2n1
Unit name: nM
Ki: 1020
--
Mol smiles: Cc1ccc(-c2nc(N)nc3c2nnn3Cc2ccccc2F)o1
Unit name: nM
Ki: 260
--
Mol smiles: CNc1ccc(Cn2nnc3c(-c4ccco4)nc(N)nc32)cc1
Unit name: nM
Ki: 636
--
Mol smiles: Nc1nc(-c2ccco2)c2nnn(Cc3ccc([N+](=O)[O-])cc3)c2n1
Unit name: nM
Ki: 1230
--
Mol smiles: Cc1cnc(-c2nc(N)nc3c2nnn3Cc2ccccc2F)s1
Unit name: nM
Ki: 338
--
Mol smiles: Nc1nc(-c2ccco2)c2nnn(Cc3ccc4[nH]nnc4c3)c2n1
Unit name: nM
Ki: 3010

From: ChEMBL document CHEMBL1139344
